system: NCI-H196 complex spheroid growth, percent test/control; test: Anticancer human tumor NCI-H196 cell line growth inhibition [AhR]; settings: second compound 3.16 µM; first compound 0.316 µM; active compounds read low;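 further: seven days of drug exposure starting three days after plating; 100% = DMSO vehicle control wells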
# note: boundary value 90% maps to No; viability, T/C below it maps to Yes

Recorded results for 5 compounds are shown here.
COc1cc(Nc2ncc3c(n2)-c2ccc(Cl)cc2C(c2c(F)cccc2OC)=NC3)ccc1C(=O)O + CC(CO)NC(=O)c1cc(-c2ccc(Cl)cc2)nn(-c2cnn(C)c2)c1=O
No
CC(C)c1c(-c2ccccc2)nc2c(C#N)c[nH]n2c1=O + Cc1ccccc1N=Nc1ccc(NC(=O)c2ccnn2C)c(C)c1
No
CC1COCCN1c1cc(C2(S(C)(=N)=O)CC2)nc(-c2ccnc3[nH]ccc23)n1 (configuration not stated) + Cc1ccccc1N=Nc1ccc(NC(=O)c2ccnn2C)c(C)c1
No
Nc1ncn(C2CC(O)C(CO)O2)c(=O)n1 (configuration not stated) + CC(CO)NC(=O)c1cc(-c2ccc(Cl)cc2)nn(-c2cnn(C)c2)c1=O
No
CC1(C)CCC(CN2CCN(c3ccc(C(=O)NS(=O)(=O)c4ccc(NCC5CCOCC5)c([N+](=O)[O-])c4)c(Oc4cnc5[nH]ccc5c4)c3)CC2)=C(c2ccc(Cl)cc2)C1 + Cc1ccccc1N=Nc1ccc(NC(=O)c2ccnn2C)c(C)c1
No

# check: viability, T/C < 90% for COc1cccc2c1C(=O)c1c(O)c3c(c(O)c1C2=O)CC(O)(C(=O)CO)CC3OC1CC(N)C(O)C(C)O1 (configuration not stated) + CC(CO)NC(=O)c1cc(-c2ccc(Cl)cc2)nn(-c2cnn(C)c2)c1=O No

Please state whether viability, T/C is below 90% for Nc1ccccc1NC(=O)c1ccc(CNC(=O)OCc2cccnc2)cc1 + CC(CO)NC(=O)c1cc(-c2ccc(Cl)cc2)nn(-c2cnn(C)c2)c1=O Yes

Here's an entry: CC(C)c1c(-c2ccccc2)nc2c(C#N)c[nH]n2c1=O + Cc1cncc(-c2nc(NCCc3c[nH]c4ccccc34)c3ncn(C(C)C)c3n2)c1 . Is its viability, T/C below 90%? No

Please let me know if Nc1ncn(C2CC(O)C(CO)O2)c(=O)n1 (configuration not stated) + Cc1cncc(-c2nc(NCCc3c[nH]c4ccccc34)c3ncn(C(C)C)c3n2)c1 shows viability, T/C below 90%. No

Threshold test, viability, T/C < 90%: CC1COCCN1c1cc(-c2ccnn2C)c2ccnc(-c3ccn[nH]3)c2n1 (configuration not stated) + Cc1ccccc1N=Nc1ccc(NC(=O)c2ccnn2C)c(C)c1 Yes

====

system: NCI-H196 complex spheroid growth, percent test/control; assay: Anticancer human tumor NCI-H196 cell line growth inhibition [AhR]; conditions: second compound 3.16 µM; first compound 0.316 µM; active compounds read low;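 further: seven days of drug exposure starting three days after plating; 100% = DMSO vehicle control wells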
Attribute: viability, T/C
Express it in %; write the number only.

Consider the reported viability, T/C for these compounds:
CC(C)c1c(-c2ccccc2)nc2c(C#N)c[nH]n2c1=O + CC(CO)NC(=O)c1cc(-c2ccc(Cl)cc2)nn(-c2cnn(C)c2)c1=O
118
Nc1ccn(C2OC(CO)C(O)C2(F)F)c(=O)n1 (stereo not given) + Cc1cncc(-c2nc(NCCc3c[nH]c4ccccc34)c3ncn(C(C)C)c3n2)c1
48.3
CC1(C)CCC(CN2CCN(c3ccc(C(=O)NS(=O)(=O)c4ccc(NCC5CCOCC5)c([N+](=O)[O-])c4)c(Oc4cnc5[nH]ccc5c4)c3)CC2)=C(c2ccc(Cl)cc2)C1 + CC(CO)NC(=O)c1cc(-c2ccc(Cl)cc2)nn(-c2cnn(C)c2)c1=O
108

Hello, I am looking for reported viability, T/C with NCI-H196 complex spheroid growth, percent test/control for COc1cccc2c1C(=O)c1c(O)c3c(c(O)c1C2=O)CC(O)(C(=O)CO)CC3OC1CC(N)C(O)C(C)O1 (stereo not given) + Cc1cncc(-c2nc(NCCc3c[nH]c4ccccc34)c3ncn(C(C)C)c3n2)c1 . Could you help? 66.2

Observed viability, T/C on NCI-H196 complex spheroid growth, percent test/control for COc1cc(C2c3cc4c(cc3C(OC3OC5COC(C)OC5C(O)C3O)C3COC(=O)C23)OCO4)cc(OC)c1O (stereo not given) + CC(CO)NC(=O)c1cc(-c2ccc(Cl)cc2)nn(-c2cnn(C)c2)c1=O , please. 119
